Data provenance: paper PMC4413215

Measured pIC50 by item
Target: UniProtKB P00766
Assay: Protease inhibition assay: chymotrypsin
Assay type: biochemical
pIC50: −log10 of the molar value.

compound	pIC50
CCCCCC(=O)N[C@@H](CC(=O)OC)C(=O)N[C@@H]1C(=O)N[C@@H](CCCNC(=N)N)C(=O)N[C@H]2CC[C@@H](O)N(C2=O)[C@@H](C(C)C)C(=O)N(C)[C@@H](Cc2ccccc2)C(=O)N[C@@H]([C@@H](C)CC)C(=O)O[C@@H]1C [Micropeptin KB970A (7), Micropeptin KB970A]	< 4.34
CCCCCC(=O)N[C@@H](CC(=O)OC)C(=O)N[C@@H]1C(=O)N[C@@H](CCCNC(=N)N)C(=O)N[C@H]2CC[C@@H](OC)N(C2=O)[C@@H](C(C)C)C(=O)N(C)[C@@H](Cc2ccccc2)C(=O)N[C@@H](C(C)C)C(=O)O[C@@H]1C [Micropeptin KB970C (10), Micropeptin KB970C]	< 4.34
